Hello, the source for this data is patent US7772271B2, in case you need it.

In this section, each of the compounds is paired with its reported melting point.
measurement name: melting point

compound: C[C@@H](OC(=O)Nc1ccc(-c2c(C#N)c3cc(OCCCn4cncn4)ccc3n2C2CCC2)cc1)c1ccccc1
observed result: 206 to 208 °C
--
compound: C[C@@H](OC(=O)Nc1ccc(-c2c(C#N)c3ccc(OC4CCOCC4)cc3n2C2CC2)cc1)c1ccc(F)cc1
observed result: 108 to 111 °C
--
compound: CC(C)C(C)OC(=O)Nc1ccc(-c2c(C#N)c3ccc(OC4CCOC4)cc3n2C2CC2)cc1 (stereo not drawn)
observed result: 207 to 208 °C
--
compound: CC(OC(=O)Nc1ccc(-c2c(C#N)c3ccc(OC4CCOCC4)cc3n2C2CCC2)cc1)C(F)(F)F (stereo not drawn)
observed result: 195 to 197 °C
--
compound: CCCS(=O)(=O)Nc1ccc(-c2c(C#N)c3ccc(N4CCCCC4)cc3n2CC2CC2)cc1
observed result: 189 to 194 °C
--
compound: CCOc1ccc2c(C#N)c(-c3ccc(NC(=O)OC4CCN(C(=O)OC(C)(C)C)CC4)cc3)n(C3CCC3)c2c1
observed result: 207 to 211 °C
--
compound: Cc1ccnc(Oc2ccc3c(C#N)c(-c4ccc(NS(=O)(=O)C5CC5)cc4)n(C4CCC4)c3c2)n1
observed result: 172 to 174 °C
--
compound: CC(C)NC(=O)Nc1ccc(-c2c(C#N)c3cc(OCCCn4ccnc4)ccc3n2C2CCC2)cc1
observed result: 232 to 234 °C
--
compound: N#Cc1c(-c2ccc(NC(=O)OC(c3ccccc3)C(F)(F)F)cc2)n(C2CCC2)c2cc(OCCCCn3cncn3)ccc12 (stereo not drawn)
observed result: 118 to 120 °C
--
compound: COCCOc1ccc2c(C#N)c(-c3ccc(NC(=O)OC(C)C)cc3)n(C3CCC3)c2c1
observed result: 125 to 126 °C
--
compound: C[C@@H](OC(=O)Nc1ccc(-c2c(C#N)c3ccc(-c4cccc(Cl)n4)cc3n2C2CCC2)cc1)C1CC1
observed result: 208 to 210 °C
--
compound: COc1ccc(Nc2ccc(-c3c(C#N)c4ccc(OC5CCOCC5)cc4n3C3CCC3)cc2)cc1
observed result: 207 to 210 °C
--
compound: CCOc1ccc2c(C#N)c(-c3ccc(NC(=O)OC4CCN(S(=O)(=O)CC)CC4)cc3)n(C3CCC3)c2c1
observed result: 237 to 242 °C
--
compound: N#Cc1c(-c2ccc(N3CCCCS3(=O)=O)cc2)n(C2CCC2)c2cc(Oc3ncccn3)ccc12
observed result: 212 to 223 °C
--
compound: CCn1c(-c2ccc(N3CCCCCC3=O)cc2)c(C#N)c2ccc(OC(C)C)cc21
observed result: 250 to 251 °C
--
compound: CC(C)CS(=O)(=O)Nc1ccc(-c2c(C#N)c3ccc(OC4COCOC4)cc3n2C2CCC2)cc1
observed result: 175 to 177 °C
--
compound: CCn1c(-c2ccc3c(ccn3S(=O)(=O)CC)c2)c(C#N)c2ccc(OC)cc21
observed result: 157 to 160 °C
--
compound: CCOc1ccc2c(C#N)c(-c3ccc(NC(=O)O[C@H](C)c4ccncc4)cc3)n(C3CCC3)c2c1
observed result: 180 to 183 °C
--
compound: N#Cc1c(-c2ccc(OC(=O)NC3CCCCC3)cc2)n(C2CCC2)c2cc(OC3CCOCC3)ccc12
observed result: 187 to 188 °C
--
compound: Cc1ccnc(Oc2ccc3c(C#N)c(-c4ccc(NC(=O)O[C@H](C)C5CC5)cc4)n(C4CCC4)c3c2)n1
observed result: 172 to 174 °C
--
compound: CCOc1ccc(-c2c(C#N)c3ccc(N4CCN(C(=O)OC(C)(C)C)CC4)cc3n2CC)cc1
observed result: 183 to 184 °C
